Origin of values: PubChem BioAssay AID1159580

assay: chemical genetic growth profiling, strain panel (AID 1159580);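 note: tested at 20 µM; growth read once vehicle control cultures reached saturation at 30 °C; 1 = growth at the plate median or of vehicle wells; lower values mean less growth of the strain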; details: S. cerevisiae deletion strains, growth OD, locus YCL016C, strain dcc1, active compounds read low
Among all 5,500 compounds or so, about 2,000 (36%) were called active. Roughly 18% stayed inconclusive and do not appear here. This is one part of the list.
Reported Metric: normalized growth

Study these solved cases before continuing.
INSERT INTO results (sample_smiles, reported_metric, result_value) VALUES
  ('CCN1CCN(c2cc3c(cc2F)c(=O)c(C(=O)O)cn3C2CC2)CC1', 'normalized growth', '0.997 (inactive)'),
  ('CCn1cc(C(=O)O)c(=O)c2cc(F)c(N3CCNCC3)cc21', 'normalized growth', '0.998 (inactive)');

Could you now look at the following compound, please?
Query: Return reported normalized growth. Input compound: "O=C(O)c1cn(-c2ccc(F)cc2)c2cc(N3CCNCC3)c(F)cc2c1=O"
Response: 0.983 (inactive)
